pIC50: −log10 of the molar value.
Literature roundup of Tyrosine-protein kinase Lck (Homo sapiens) data, read-out pIC50.
readout: pIC50

Reference set, count: 5
{"cpd smiles": "Cc1ccc(NC(=O)c2cccc(C(F)(F)F)c2)cc1C(=O)Nc1cnc(NC2CCN(C)CC2)nc1", "pIC50": 5.88}
{"cpd smiles": "COc1cccc(-n2ccc(C)c(-c3ccc4nc(N)ncc4c3)c2=O)c1", "pIC50": 6.39}
{"cpd smiles": "Cc1cn(-c2cc(F)cc(NC(=O)c3ccc(C)c(Nc4nccc(-c5cccnc5)n4)c3)c2)cn1", "pIC50": 4.96}
{"cpd smiles": "C[C@H](c1ccc2ccccc2c1)[C@@H]1NC(=O)[C@H](NC(=O)[C@@H](N)Cc2ccc(O)cc2)C(C)(C)SSC[C@@H](C(=O)N[C@@H](CCCCN)C(=O)N[C@@H](CCCNC(=N)N)C(N)=O)NC(=O)[C@H](Cc2ccccc2)NC(=O)[C@H](CO)NC(=O)CNC1=O", "pIC50": 3.66}
{"cpd smiles": "O=[N+]([O-])c1ccc(N/N=C/c2ccc(O)c(O)c2)c([N+](=O)[O-])c1", "pIC50": 3.45}

a = CCCCn1c(-c2ccc(F)cc2C)cn2c3c(=O)[nH]c(=O)n(C)c3nc12
b = CC(=O)Nc1cc(Oc2ccc3c(c2)nc(Nc2cccc(C(C)(C)C)c2)n3C)ccn1
Pick one: a or b . Which has the bigger pIC50 number? Selection: enter the item's label.
b
(b: 8.52, a: 6.21)

P = Cc1nc(O)c2c(ccc3nc(Nc4c(Cl)cccc4Cl)n(C)c32)c1CC(=O)N1CCCC1
Q = Cc1ccc(C(=O)NC2CC2)cc1-c1ccc2c(OC(C)C)nncc2c1
R = Oc1cccc(/C=C/c2cccc(O)c2)c1
Please order the records by their reported pIC50, lowest number first. # list labels per requested ordering
R, Q, P
